- TEST PROTOCOL: Biological half-life in the rat
- Format: ADME, organism-based
- MEASUREMENT PARAMETERS: in vivo
PROPERTY NAME: half-life (min)

[P] CSCC[C@H](NC(=O)c1ccc(CN(Cc2cc(F)cc(F)c2)c2cccnc2)cc1-c1ccccc1C)C(=O)O
[Q] CSCC[C@H](NC(=O)c1ccc(CN(Cc2ccccc2)c2cncnc2)cc1-c1ccccc1C)C(=O)O
I'm curious, which of these has a smaller half-life number: P or Q ? Kindly state the label of the option you pick. Q
